- Assay comment: Pharmacokinetic determination in SD rats (i.v. and i.g.)
- Assay type: in vivo
- Experimental conditions: male, Sprague-Dawley (SD), rat, plasma, iv, 1 mg/kg
Assay metric: clearance

Reference set, count: 3
>>> print(df.to_string())
                                   compound  assay_metric  measured_result
0  O=C1c2ccc(Oc3c(Cl)cc(-n4ncc(=O)[nH]c4=O)cc3Cl)cc2CCN1Cc1ccc(F)cc1 [Example 20]     clearance   1.01 mL/min/kg
1  O=C1c2ccc(Oc3c(Cl)cc(-n4ncc(=O)[nH]c4=O)cc3Cl)cc2CCN1c1ccc(F)cc1 [Example 28]     clearance   1.73 mL/min/kg
2  O=C1c2ccc(Oc3c(Cl)cc(-n4ncc(=O)[nH]c4=O)cc3Cl)cc2CCN1Cc1cccc(OC(F)(F)F)c1 [Example 43]     clearance  0.349 mL/min/kg

Turning to the following compound.
Prompt line: Entry O=C1c2ccc(Oc3c(Cl)cc(-n4ncc(=O)[nH]c4=O)cc3Cl)cc2CCN1Cc1ccc(C(F)(F)F)cc1 [Example 29] : reported clearance = ?
Response line: 0.297 mL/min/kg

###

Please provide measured AUC(0-inf) for the entries that follow.
- Assay comment: Pharmacokinetic determination in SD rats (i.v. and i.g.)
- Format: in vivo
- Experimental conditions: male, Sprague-Dawley (SD), rat, plasma, po, ig, 5 mg/kg
Answers are plain numbers, in µg·h/mL.

                                   compound  readout_units  measured_result
0  O=C1c2ccc(Oc3c(Cl)cc(-n4ncc(=O)[nH]c4=O)cc3Cl)cc2CCN1Cc1ccc(C(F)(F)F)cc1 [Example 29]        µg·h/mL              236

For every item below, please supply its AUC(0-inf).
1. O=C1c2ccc(Oc3c(Cl)cc(-n4ncc(=O)[nH]c4=O)cc3Cl)cc2CCN1c1ccccc1F [Example 44]
2. O=C1c2ccc(Oc3c(Cl)cc(-n4ncc(=O)[nH]c4=O)cc3Cl)cc2CCN1Cc1ccncc1 [Example 24]
3. O=C1c2ccc(Oc3c(Cl)cc(-n4ncc(=O)[nH]c4=O)cc3Cl)cc2CCN1Cc1ccccn1 [Example 46]
4. O=C1c2ccc(Oc3c(Cl)cc(-n4ncc(=O)[nH]c4=O)cc3Cl)cc2CCN1Cc1ccc(F)cc1 [Example 20]

Response line:
1: 14.3; 2: 223; 3: 633; 4: 94.4

###

- Assay comment: Pharmacokinetic determination in SD rats (i.v. and i.g.)
- Format: in vivo
- Experimental conditions: male, Sprague-Dawley (SD), rat, plasma, iv, 1 mg/kg
Assay metric: AUC(0-t) (ng·h/mL)
Give bare numbers, in ng·h/mL.

>>> print(df.to_string())
                                smiles_repr  readout_units  measured_result
0  O=C1c2ccc(Oc3c(Cl)cc(-n4ncc(=O)[nH]c4=O)cc3Cl)cc2CCN1c1ccccc1F        ng·h/mL             2110

For every item below, please supply its AUC(0-t).
1. O=C1c2ccc(Oc3c(Cl)cc(-n4ncc(=O)[nH]c4=O)cc3Cl)cc2CCN1Cc1ccc(F)cc1
2. Cc1ccc(CN2CCc3cc(Oc4c(Cl)cc(-n5ncc(=O)[nH]c5=O)cc4Cl)ccc3C2=O)cc1
3. O=C1c2ccc(Oc3c(Cl)cc(-n4ncc(=O)[nH]c4=O)cc3Cl)cc2CCN1c1cccnc1
4. O=C1c2ccc(Oc3c(Cl)cc(-n4ncc(=O)[nH]c4=O)cc3Cl)cc2CCN1Cc1ccncc1
5. O=C1c2ccc(Oc3c(Cl)cc(-n4ncc(=O)[nH]c4=O)cc3Cl)cc2CCN1Cc1ccc(C(F)(F)F)cc1

Response line:
1: 16300; 2: 1020; 3: 3580; 4: 3720; 5: 48700

Prompt line: Entry `O=C1c2ccc(Oc3c(Cl)cc(-n4ncc(=O)[nH]c4=O)cc3Cl)cc2CCN1Cc1ccc(Cl)cc1` : reported AUC(0-t) = ?
Response line: 20900
